Let's look at some IC50 data for Tyrosine-protein kinase JAK2 (Homo sapiens, UniProt O60674) that I collected from the literature.

# annotated cases, reported IC50 shown
O=C(/C=C/C(=O)N1CCNCC1)Nc1cc2cc(c1)Nc1nccc(n1)-c1cccc(c1)COC/C=C/COC2 :: 38 nM
Cc1ccc(S(=O)(=O)N2CCC(n3c([C@@H](C)O)nc4cnc5[nH]ccc5c43)C2)cc1 (some centres unmarked) :: 100 to 1000 nM

What value of IC50 has been recorded for this entry: CN(C)S(=O)(=O)c1ccc(NC(=O)CN2CCN(c3ncnc4[nH]ccc34)CC2)cc1Cl
> 1000 nM

Now this one: Nc1cc2cc(c1)Nc1nccc(n1)-c1cccc(c1)COC/C=C/COC2
6 nM

###

Let's look at some IC50 data for Tyrosine-protein kinase JAK2 (Homo sapiens, UniProt O60674) that I collected from the literature.

N#CCC(C1CCCC1)n1cc(-n2c(C(F)(F)F)nc3cnc4[nH]ccc4c32)cn1 (stereo not drawn) :: 0.01 to 0.1 µM
O=C(CN1CCN(c2nc[nH]c3nccc2-3)CC1)Nc1ccc(S(=O)(=O)Nc2ncccn2)cc1 :: < 0.25 µM
CCS(=O)(=O)N1CC(CC#N)(n2cc(-n3c(-c4ccc(C)s4)nc4cnc5[nH]ccc5c43)cn2)C1 :: < 0.01 µM
CC(=O)O[C@H](C)c1nc2cnc3[nH]ccc3c2n1N1CCC(CC#N)CC1 :: 0.00404 µM
O=C(NCC(F)(F)F)N1CCC(n2c(-c3ncc[nH]3)nc3cnc4[nH]ccc4c32)C1 (stereo in doubt) :: 0.1 to 1 µM
C1=C/COCc2cccc(c2)-c2ccnc(n2)Nc2cc(cc(OC/C=C/CN3CCCC3)c2)COC/1 :: 0.124 µM
N#CCCn1cc(-n2c(-c3ccccc3Cl)nc3cnc4[nH]ccc4c32)cn1 :: 0.01 to 0.1 µM
C[C@@H](O)c1nc2cnc3[nH]ccc3c2n1C1CCN(C(=O)c2ccc(C#N)cc2)C1 (stereo partly drawn) :: 0.1 to 1 µM

Consider now this further compound.
Checklist item: IC50 tested on Tyrosine-protein kinase JAK2 (Homo sapiens, UniProt O60674), entry N#CCC1(n2cc(-c3cccc4nc(NC(=O)C5CC5)cn34)cn2)CCC(C(F)(F)F)CC1 (stereo not drawn) , value?
0.0008 µM

###

Let's look at some IC50 data for Tyrosine-protein kinase JAK2 (Homo sapiens, UniProt O60674) that I collected from the literature.

N#CCS(=O)(=O)NCC1CCN(n2c(N)nc3cnc4[nH]ccc4c32)CC1 :: 0.1 nM
Oc1cccc(-c2nc3cnc4[nH]ccc4c3n2[C@H]2CCN(CCCC(F)(F)F)C2)c1 :: 10 to 100 nM
C[C@@H](O)c1nc2cnc3[nH]ccc3c2n1C1CCN(C(=O)OC(C)(C)C)C1 (some centres unmarked) :: 100 to 1000 nM
O=C(/C=C/CN1CCCC1)Nc1cc2cc(c1)Nc1nccc(n1)-c1cccc(c1)COC/C=C/COC2 :: 9 nM
CC(C)NS(=O)(=O)c1ccc(NC(=O)[C@H](C)N2CCN(c3ncnc4[nH]ccc34)CC2)cc1 :: > 1000 nM
N#CC[C@H]1CC[C@H](n2c(/N=N/c3ccc(O)c(C(=O)N[C@H](CC(=O)O)C(=O)O)c3)nc3cnc4[nH]ccc4c32)CC1 :: 4.26 nM

What value of IC50 has been recorded for this entry: N#CCCn1cc(-n2cnc3cnc4[nH]ccc4c32)cn1
< 10 nM

Now this one: C[C@@H](O)c1nc2cnc3[nH]ccc3c2n1[C@H]1CCN(CCCC#N)C1
100 to 1000 nM

###

Let's look at some IC50 data for Tyrosine-protein kinase JAK2 (Homo sapiens, UniProt O60674) that I collected from the literature.

# annotated cases, reported IC50 shown
CCCCS(=O)(=O)N1CC(CC#N)(n2cc(-n3c(-c4ccc(CO)o4)nc4cnc5[nH]ccc5c43)cn2)C1 :: 10 to 100 nM
COCCC(CC#N)n1cc(-c2cccc3nc(NC(=O)C4CC4)cn23)cn1 (centres unmarked) :: 13.4 nM
Cc1cnc(Nc2cnn(CC3CCOCC3)c2)nc1-c1cnn([C@H](CC#N)C2CCCC2)c1 :: < 1 nM
N#CCCn1cc(-n2c(-c3ccc(CO)o3)nc3cnc4[nH]ccc4c32)cn1 :: < 10 nM
C[C@@H](O)c1nc2cnc3[nH]ccc3c2n1[C@H]1CCN(C(F)(F)C(F)(F)C(F)(F)C(F)(F)F)C1 :: 100 to 1000 nM

What value of IC50 has been recorded for this entry: N#CCCn1cc(-n2c(-c3cccs3)nc3cnc4[nH]ccc4c32)cn1
10 to 100 nM

Now this one: COCCN(C)S(=O)(=O)c1ccc(NC(=O)CN2CCN(c3ncnc4[nH]ccc34)CC2)cc1
> 1000 nM

Now this one: C[C@@H](O)c1nc2cnc3[nH]ccc3c2n1C1CCN(C(=O)c2ccc(F)cc2)C1 (some centres unmarked)
100 to 1000 nM

###

Let's look at some IC50 data for Tyrosine-protein kinase JAK2 (Homo sapiens, UniProt O60674) that I collected from the literature.

CN(C)S(=O)(=O)c1ccc(NC(=O)CN2CCN(c3ncnc4[nH]ccc34)CC2)cc1F :: > 1000 nM
O=C(Nc1nc2cccc(-c3ccc(CN4CCS(=O)(=O)CC4)cc3)n2n1)C1CC1(F)F (centres unmarked) :: 1980 nM
N#C[C@H]1CC[C@H](n2c(-c3ccc(CO)o3)nc3cnc4[nH]ccc4c32)CC1 (stereo in doubt) :: 10 to 100 nM
O=C(CN1CCN(c2nc[nH]c3nccc2-3)CC1)Nc1ccc(S(=O)(=O)N2CCCCC2)cc1 :: > 1000 nM
N#CCC(CC1CC1)n1cc(-c2cccc3nc(NC(=O)C4CC4)cn23)cn1 (centres unmarked) :: 6.87 nM
N#C[C@H]1CC[C@H](n2c(-c3ccc(F)cc3)nc3cnc4[nH]ccc4c32)CC1 (stereo in doubt) :: 100 to 1000 nM

What value of IC50 has been recorded for this entry: CC(C)[C@H](N)C(=O)O[C@H](C)c1nc2cnc3[nH]ccc3c2n1N1CCC(CC#N)CC1
56.4 nM

Now this one: C[C@@H](O)c1nc2cnc3[nH]ccc3c2n1[C@@H]1CN(CCCC(F)(F)F)CC12CC2
10 to 100 nM

###

pIC50: −log10 of the molar value.
Let's look at some pIC50 data for Tyrosine-protein kinase JAK2 (Homo sapiens) that I collected from the literature.

# annotated cases, reported pIC50 shown
Cc1cnc(Nc2cnn(C3COC3)c2)nc1-c1cnn([C@H](CC#N)C2CCCC2)c1 :: > 9.00
Cc1ccc(-c2nc3cnc4[nH]ccc4c3n2-c2cnn(CCCC#N)c2)s1 :: 7.00 to 8.00
CSCC1(C)CCN(n2c(CO[N+](=O)[O-])nc3cnc4[nH]ccc4c32)CC1 :: 8.38
Cc1cnc(Nc2cnn(C3CCOCC3)c2)nc1-c1cnn([C@H](CC#N)C2CCCC2)c1 :: > 9.00
C[C@@H](O)c1nc2cnc3[nH]ccc3c2n1C1CCN(S(=O)(=O)c2cccs2)C1 (stereo partly shown) :: 6.00 to 7.00
O=C(CN1CCN(c2nc[nH]c3nccc2-3)CC1)Nc1cccc(S(=O)(=O)N2CCCC2)c1 :: < 6.00

Consider now this further molecule.
What value of pIC50 has been recorded for this entry: O=C(O)/C=C/C(=O)Nc1cc2cc(c1)Nc1nccc(n1)-c1cccc(c1)COC/C=C/COC2
8.15

###

Let's look at some IC50 data for Tyrosine-protein kinase JAK2 (Homo sapiens) that I collected from the literature.

What value of IC50 has been recorded for this entry: CS(=O)(=O)c1ccc(C2Nc3cnc4[nH]ccc4c3N2c2cnn(CCC#N)c2)cc1 (stereo not drawn)
10 to 100 nM

Now this one: N#CCCCn1cc(-n2c(C3CCC3)nc3cnc4[nH]ccc4c32)cn1
10 to 100 nM

Now this one: COc1cc(NC(=O)CN2CCN(c3ncnc4[nH]ccc34)CC2)ccc1S(=O)(=O)N(C)C
> 1000 nM

Now this one: N#C[C@H]1CC[C@H](n2c(-c3ccccc3O)nc3cnc4[nH]ccc4c32)CC1 (stereo in doubt)
10 to 100 nM

Now this one: O=C(/C=C/C(=O)N1CCOCC1)Nc1cc2cc(c1)Nc1nccc(n1)-c1cccc(c1)COC/C=C/COC2
17 nM

###

Let's look at some pIC50 data for UniProtKB O60674 that I collected from the literature.
pIC50: −log10 of the molar value.

What value of pIC50 has been recorded for this entry: CC(C)[C@@H](N)C(=O)O[C@H](C)c1nc2cnc3[nH]ccc3c2n1N1CCC(CC#N)CC1
7.14

Now this one: CCC(CC#N)n1cc(-c2cccc3nc(NC(=O)C4CC4)cn23)cn1 (stereo not shown)
8.33

Now this one: N#CC[C@H]1CC[C@H](n2c(/N=N/c3ccc(O)c(C(=O)N[C@H](CCCCN)C(=O)O)c3)nc3cnc4[nH]ccc4c32)CC1
8.18

Now this one: Cc1ccc(-c2nc3cnc4[nH]ccc4c3n2-c2cnn(CCC#N)c2)o1
> 8.00

Now this one: N#C[C@H]1CC[C@H](n2c(-c3ccc(C(F)(F)F)cc3)nc3cnc4[nH]ccc4c32)CC1 (stereo in doubt)
6.00 to 7.00

Now this one: C[C@@H](O)c1nc2cnc3[nH]ccc3c2n1[C@@H]1CN(CCCC(F)(F)F)C[C@H]1F
6.00 to 7.00

Now this one: N#Cc1ccc(-n2c(-c3cccc(O)c3)nc3cnc4[nH]ccc4c32)cc1
6.00 to 7.00

Now this one: CC1CCCN(C(=O)C2CCN(C(=O)CN3CCN(c4nc[nH]c5nccc4-5)CC3)CC2)C1 (stereo not shown)
< 6.00

Now this one: N#CCN1CCC(n2c(-c3ccc(CO)o3)nc3cnc4[nH]ccc4c32)C1 (stereo not shown)
7.00 to 8.00
